Molecular target: T1, Duffy Antigen Receptor for Chemokines (DARC) (human) (UniProt Q16570)
T1 sequence (looked up): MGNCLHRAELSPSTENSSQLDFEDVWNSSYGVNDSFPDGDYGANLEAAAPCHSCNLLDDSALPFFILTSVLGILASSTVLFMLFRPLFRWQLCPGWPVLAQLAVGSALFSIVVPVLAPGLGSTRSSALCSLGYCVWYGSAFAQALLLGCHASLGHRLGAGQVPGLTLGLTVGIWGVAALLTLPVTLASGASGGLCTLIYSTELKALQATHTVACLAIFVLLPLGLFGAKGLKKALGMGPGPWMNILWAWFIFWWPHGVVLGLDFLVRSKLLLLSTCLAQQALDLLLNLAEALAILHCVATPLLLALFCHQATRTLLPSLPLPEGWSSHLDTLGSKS
Assay: estimated ka for binding to red blood cells divided by average inhibitory ED50 in THP-1 migration
Positions of bridges follow the written chain, without caps; N, C: chain ends. Non-standard residues stand in square brackets, D forms with d. No end group written: not given here.
Each entry gets Not met if its Duffy selectivity stays under 2, and Met if its Duffy selectivity is 2 or above.

[dC][dQ][dV][dW][dK][dQ][dK][dP][dD][dA][dC] (disulfide 1-11; not fully specified) [CRD-Cys13pep3[3-12]] = Met
EICADPSEEWVQ (not fully specified) [Ser7Glu8Glu9peptide 3(1-12)[MCP-1]] = Not met
EICADPKQKWVQ [Peptide 3(1-12)[MCP-1]] = Not met
CADPKQKWVQ [Peptide 3(3-12)[MCP-1]] = Not met

[in] Record KQKWVQ [Peptide 3(7-12)[MCP-1]] ; criterion: Duffy selectivity no lower than 2. Met?
[out] Met

[in] Record EICADP [Peptide 3(1-6)[MCP-1]] ; criterion: Duffy selectivity no lower than 2. Met?
[out] Met
